Item-by-item account of self-cleavage kobs at 40 uM GlcN6P
B1: glmS ribozyme (parent)
chain: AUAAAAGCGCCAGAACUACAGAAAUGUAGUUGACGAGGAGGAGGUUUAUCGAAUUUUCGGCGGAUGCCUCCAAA

- Variants of: B1
- TEST DETAILS: self-cleavage kobs at 40 uM GlcN6P; higher = faster cleavage; RNA array
- CONDITION PARAMETERS: with glucosamine-6-phosphate
Fewer inactive variants are shown than the library holds.

VARIANT ANNOTATION	TEST VALUE
G32A G60A	< 1e-05 s⁻¹
U31C G40U G44U U46G	< 1e-05 s⁻¹
A6G C11U C16A A64G	< 1e-05 s⁻¹

Consider the variant A12C G37U and give its measured self-cleavage kobs at 40 uM GlcN6P.
< 1e-05 s⁻¹

Consider the variant A14U U46G and give its measured self-cleavage kobs at 40 uM GlcN6P.
1.98e-05 s⁻¹

Consider the variant U65G G66U and give its measured self-cleavage kobs at 40 uM GlcN6P.
1.83e-05 s⁻¹

Consider the variant G9C U57C C71A and give its measured self-cleavage kobs at 40 uM GlcN6P.
< 1e-05 s⁻¹

Consider the variant C8A C10A C34U G60A and give its measured self-cleavage kobs at 40 uM GlcN6P.
< 1e-05 s⁻¹
